- tested.on: Gamma-secretase
- assay.details: Displacement of [3H]L685458 from gamma-secretase in human THP1 cells
- Format: cell-based
- cond: thp-1
IC50 overview
Form entry: value (nM) — number only.

Worked examples follow.
C[C@H](c1ccc(F)cc1CCCC(=O)O)N(c1cc(F)ccc1F)S(=O)(=O)c1ccc(Cl)cc1 ... 25600
CC(C)C[C@H](NC(=O)OCc1ccccc1)C(=O)N[C@@H](CC(C)C)C(=O)NCC(=O)CNC(=O)[C@H](CC(C)C)NC(=O)[C@H](CC(C)C)NC(=O)OCc1ccccc1 ... 8.7
C[C@H](NC(=O)[C@@H](O)c1cc(F)cc(F)c1)C(=O)N[C@@H]1C(=O)N(C)N=Cc2ccccc21 ... 510
CSc1ccc(/C=C2/C(C)=C(CC(=O)O)c3cc(F)ccc32)cc1 [SULINDAC SULFIDE] ... 57100

May I ask what IC50 has been recorded for CC(C)C[C@H](NC(=O)[C@H](Cc1ccccc1)C[C@@H](O)[C@H](Cc1ccccc1)NC(=O)OC(C)(C)C)C(=O)N[C@@H](Cc1ccccc1)C(N)=O ? 4.3
